Each record here notes measured TGI.
test system: SK-OV-3 ovarian; assay: NCI tumour cell line growth inhibition, 48 h

Example entries begin here.
# molecule, TGI
measured = [
    ("Fc1cc(-c2cc(-c3ccccc3)no2)c(Cl)cc1Cl", "> 50.3 µM"),
    ("O=C1C(c2c(O)[nH]c3ccc(F)cc23)=Nc2ccccc21", "24.9 µM"),
]

Consider the additional molecule presented here.
Query TGI on SK-OV-3 ovarian for COC(=O)C1=C(C(=O)NNc2ccccc2)N(c2cccnc2Cl)C(c2ccccc2)=CC1c1ccccc1 (stereo not drawn)
> 100 µM

====

tested on: MDA-MB-231 breast; assay: NCI tumour cell line growth inhibition, 48 h; in the data active = GI50 below about 0.43 µM; inactive = the rest
# valid calls are t = active, f = inactive; nothing else

Hi, do you know how CN1C(=O)N(C)C2C1NN=c1s/c(=C\c3ccc(Cl)cc3Cl)c(=O)n12 (configuration not stated) came out in this test?
f

====

system: SF-539 CNS; experiment: NCI tumour cell line growth inhibition, 48 h
quantity name: TGI

# compound, quantity name, result
measured = [
    ("Cn1c(=O)n(C2(C)C[Se]C2)c2ccccc21", "TGI", "> 100 µM"),
]

Field request: TGI | item: CCCC(=O)Nc1cc2c3c(c1)CCCN3CCC2
> 10 µM

Please do the same for CC12CP(=O)(c3ccccc3)CC1C2(Cl)Cl (stereo unspecified) as well.
> 100 µM

Please do the same for Nc1nc(N)c2c3c(cnc2n1)CC(c1ccccc1)CC3 (stereo unspecified) as well.
> 100 µM

Please do the same for COc1ccc(/C=C2/N=C(c3ccccc3)N(c3c(C)n(C)n(-c4ccccc4)c3=O)C2=O)cc1OC as well.
> 100 µM

Please do the same for CCSc1ncnc2c1ncn2C1OC(CO)C(O)C1O (stereo unspecified) as well.
> 100 µM

====

system: T-47D breast; assay: NCI tumour cell line growth inhibition, 48 h
Each record here notes measured TGI.

Example entries begin here.
# compound, quantity name, result
rows = [
    ("O=[N+]([O-])c1ccc2c(c1)C1=C(CO2)Cc2ccccc2O1", "TGI", "> 100 µM"),
    ("NCCNc1c2c(c(NCCN)c3[nH]ccc13)C(=O)c1ccccc1C2=O", "TGI", "> 100 µM"),
    ("CCOC(=O)CN1C(=O)c2ccc(NC(=O)C(=O)O)cc2S1(=O)=O", "TGI", "> 100 µM"),
    ("Cc1nc2c(nc1C)-c1[nH]c3c(c1C(=O)C2=O)CCCC3=O", "TGI", "0.709 µM"),
    ("CN=C(N=Nc1c(O)[nH]c2ccccc12)SCC(=O)c1ccc(Br)cc1", "TGI", "> 100 µM"),
]

Field request: TGI | item: COc1cc2c(c(OC)c1OC)-c1ccc(SC)c(=O)cc1C(NC=O)CC2 (centres undefined)
> 100 µM

====

system: OVCAR-4 ovarian; test: NCI tumour cell line growth inhibition, 48 h; in the data active means GI50 below about 0.43 µM; inactive means the rest
# valid calls are label 1 = active, label 0 = inactive; nothing else

Solved entries (count: 3):
# compound, category
records = [
    ("O=C(N[C@@H](c1ccc(Cl)c(Cl)c1)C1CNC1)c1ccc2cnccc2c1", "label 0"),
    ("COc1cc2c(cc1OCCCNC(=O)c1cccc3c(=O)c4ccccc4[nH]c13)N=C[C@@H]1CCCN1C2=O", "label 1"),
    ("COc1c(OC[C@H](O)CN2CCOCC2)ccc2c3n(c(=NC(=O)c4cccnc4C)nc12)CCN3", "label 0"),
]

Could you now look at the following molecule, please?
Hi, do you know how O=c1cc(-c2cccc3ccccc23)[nH]c2ncccc12 came out in this test?
label 0
